Assay: Cytotoxicity against human HPLF cells after 48 hrs by MTT assay
Assay type: cell-based
measurementLabel: CC50 at 48 h (µM)
Reply with just the number (in µM).

[
  {
    "compound": "COCC[S+](C)CCC(=O)N1C/C(=C\\c2ccccc2)C(=O)/C(=C/c2ccccc2)C1.F[B-](F)(F)F (centres undefined)",
    "unitInfo": "µM",
    "observed": 6.25
  },
  {
    "compound": "COCCSCCC(=O)N1C/C(=C\\c2ccc(Cl)cc2)C(=O)/C(=C/c2ccc(Cl)cc2)C1",
    "unitInfo": "µM",
    "observed": 5.97
  },
  {
    "compound": "COCCSCCC(=O)N1C/C(=C\\c2ccc([N+](=O)[O-])cc2)C(=O)/C(=C/c2ccc([N+](=O)[O-])cc2)C1",
    "unitInfo": "µM",
    "observed": 2.59
  }
]

### Prompt Give the measured CC50 at 48 h of `COCCSCCC(=O)N1C/C(=C\c2ccc(F)cc2)C(=O)/C(=C/c2ccc(F)cc2)C1` .
### Response 4.99

Data origin: ChEMBL document CHEMBL3785069
